B1: tRNA (parent)
chain: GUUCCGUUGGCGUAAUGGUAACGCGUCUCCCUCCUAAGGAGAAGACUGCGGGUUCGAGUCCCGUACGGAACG

- Variants of: B1
- experiment: yeast fitness relative to wild type (ratio to wild type); higher = fitter; tRNA-Arg(CCU), competitive growth, 37 C, YPD
Fewer inactive variants are shown than the library holds.
# binarize yeast fitness: threshold 0.8 inclusive, high side met, low side not met

**Q:** Hi team, for U28C A43G , is the recorded yeast fitness at or above 0.8?
**A:** met

**Q:** Hi team, for A21U U53C U54G , is the recorded yeast fitness at or above 0.8?
**A:** not met

**Q:** yeast fitness >= 0.8 for U13A A40G A42G A57C C66U ?
**A:** not met

**Q:** Is yeast fitness at least 0.8? Consider C4G U53A G63C
**A:** not met

**Q:** hey, is yeast fitness for this one >= 0.8? A14G C27U C49A U53A C61U
**A:** not met

**Q:** Does yeast fitness meet or surpass 0.8 for A37U U53G C55G C62A ?
**A:** not met

**Q:** Tell me whether yeast fitness is at least 0.8 here: C11U G50A C66A
**A:** not met

**Q:** Would you say C29U A43U shows yeast fitness at minimum 0.8?
**A:** met

**Q:** Can G10C U19A C29G C34U be said to have yeast fitness at or above 0.8?
**A:** not met

**Q:** Test whether the variant C24U C30A A37G U64A C66U A70G records yeast fitness of 0.8 or higher.
**A:** not met

**Q:** # bool: yeast fitness of A15U A21C C24G C62G >= 0.8
**A:** not met

**Q:** Tell me whether yeast fitness is at least 0.8 here: A36G C62G
**A:** met

**Q:** Can G23A C30A U54C C55U be said to have yeast fitness at or above 0.8?
**A:** not met

**Q:** In plain terms: is recorded yeast fitness at least 0.8 for U13C C29A ?
**A:** not met

**Q:** Is reported yeast fitness greater than or equal to 0.8 here: C5G G18C U26C U28A
**A:** not met

**Q:** // inclusive: yeast fitness at least 0.8? input: C11A C27G C55U
**A:** not met

**Q:** Assess whether reported yeast fitness for C46G G51A sits at 0.8 or higher.
**A:** not met

**Q:** Say whether C4U U28C A36C shows yeast fitness of 0.8 or more.
**A:** not met

**Q:** Does the reported yeast fitness for C5U C33U A36C U54C fall at or above the 0.8 mark?
**A:** not met

**Q:** Is it the case that U7C G12A A45C C49U C61G A65C has yeast fitness reaching or exceeding 0.8?
**A:** not met
